molecular target: UniProt Q13547; experiment: Inhibition of recombinant human full-length C-terminal FLAG-tagged HDAC1 expressed in baculovirus expression system using Ac-peptide-AMC as substrate preincubated for 15 mins followed by substrate addition by fluorescence assay
Sequence (Q13547 whole entry): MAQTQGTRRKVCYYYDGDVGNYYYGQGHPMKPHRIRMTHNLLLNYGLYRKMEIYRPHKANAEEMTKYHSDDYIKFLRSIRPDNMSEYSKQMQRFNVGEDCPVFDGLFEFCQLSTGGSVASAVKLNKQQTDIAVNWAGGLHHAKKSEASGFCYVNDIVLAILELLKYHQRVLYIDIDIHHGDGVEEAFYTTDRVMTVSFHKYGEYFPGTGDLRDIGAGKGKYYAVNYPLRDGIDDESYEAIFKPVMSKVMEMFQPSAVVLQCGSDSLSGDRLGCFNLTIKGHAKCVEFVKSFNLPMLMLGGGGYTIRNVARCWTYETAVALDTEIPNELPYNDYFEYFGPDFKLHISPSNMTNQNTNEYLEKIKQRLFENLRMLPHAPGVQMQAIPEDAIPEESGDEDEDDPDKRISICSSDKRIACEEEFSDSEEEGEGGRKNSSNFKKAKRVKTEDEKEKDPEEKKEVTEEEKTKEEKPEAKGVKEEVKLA

chemical_string | IC50
CCn1cnc2c(NCc3cccc(/C=C/C(=O)NO)c3)nc(N3CCOCC3)nc21 | 5.8 nM
CC(C)n1cnc2c(NCc3cccc(/C=C/C(=O)NO)c3)nc(N3CCOCC3)nc21 | 7 nM

====

system: A549; assay: Antiproliferative activity against human A549 cells measured after 72 hrs by CCK8 assay; type: functional, cell-based; details: A549, 72 h
Reported IC50 is given for each of the following molecules.
metric_name: IC50 (nM)

molecule | system | metric_name | inequality_symbol | measured_value
CC[C@H](CO)Nc1nc(NCc2ccccc2)c2ncn(C(C)C)c2n1 [SELICICLIB] | A549 | IC50 | > | 10000
CCn1cnc2c(NCc3cccc(/C=C/C(=O)NO)c3)nc(N3CCOCC3)nc21 | A549 | IC50 | = | 1490
Cc1[nH]c2ccccc2c1CCNCc1ccc(/C=C/C(=O)NO)cc1 [PANOBINOSTAT] | A549 | IC50 | = | 20
CC(C)n1cnc2c(NCc3cccc(/C=C/C(=O)NO)c3)nc(N3CCOCC3)nc21 | A549 | IC50 | = | 1260

====

target: CDK2/Cyclin A2 (Homo sapiens, UniProt P24941); experiment: Inhibition of wild-type human N-terminal GST-tagged CDK2/cycA2 expressed in Sf21 insect cells using FAM-labelled substrate preincubated for 10 mins followed by substrate addition and measured after 30 mins by fluorescence assay
pIC50: −log10 of the molar value.
metric_name: pIC50

chemical_string | system | measured_value
CCn1cnc2c(NCc3cccc(/C=C/C(=O)NO)c3)nc(N3CCOCC3)nc21 | CDK2/Cyclin A2 (Homo sapiens, UniProt P24941) | 7.25
CC(C)n1cnc2c(NCc3cccc(/C=C/C(=O)NO)c3)nc(N3CCOCC3)nc21 | CDK2/Cyclin A2 (Homo sapiens, UniProt P24941) | 6.90

Data credit: ChEMBL document CHEMBL4387776
